experiment: Selectivity index, ratio of CC50 for mock-infected human MT4 cells to EC50 for HIV1 3B infected in human MT4 cells; format: toxicity, cell-based; details: read-out: Ratio CC50/EC50
quantity: selectivity ratio

Before answering, review these 3 worked examples.
input-smiles: Cc1c(Cc2c(Cl)cccc2Cl)nc(SCC(=O)Nc2ccc(Br)cc2)[nH]c1=O
selectivity ratio: > 1330
--
input-smiles: O=C(CSc1nc(Cc2c(Cl)cccc2Cl)cc(=O)[nH]1)Nc1ccc(F)c(Cl)c1
selectivity ratio: < 1
--
input-smiles: O=C(CSc1nc(Cc2c(Cl)cccc2Cl)cc(=O)[nH]1)Nc1ccc(Br)cc1
selectivity ratio: 31

Qu. # get_value(readout='selectivity ratio', item= COc1ccc(NC(=O)CSc2nc(Cc3c(Cl)cccc3Cl)c(C)c(=O)[nH]2)cc1OC )
Ans. > 175

Qu. Which measured selectivity ratio value corresponds to Cc1c(Cc2c(Cl)cccc2Cl)nc(SCC(=O)Nc2ccc(Cl)c(Cl)c2)[nH]c1=O ?
Ans. ≥ 88

Qu. Item under review: Cc1c(Cc2c(Cl)cccc2Cl)nc(SCC(=O)Nc2ccc([N+](=O)[O-])cc2)[nH]c1=O . Reported selectivity ratio?
Ans. > 264

Qu. // query selectivity ratio value for entry O=C(CSc1nc(Cc2c(Cl)cccc2Cl)cc(=O)[nH]1)Nc1ccc(Cl)cc1
Ans. 23

Qu. Field request: selectivity ratio | item: Cc1c(Cc2c(Cl)cccc2Cl)nc(SCC(=O)Nc2ccc(F)c(F)c2)[nH]c1=O
Ans. > 387

###

test system: Human immunodeficiency virus 1; assay: Antiviral activity against HIV1 3B infected in human MT4 cells assessed as inhibition of virus-induced cytopathic effect after 5 days by MTT assay; format: functional, organism-based; conditions: Human immunodeficiency virus 1, 3B, MT4, 120 h
pEC50: −log10 of the molar value.
Could you label it 1 if measured pEC50 is 6 or higher, and -1 otherwise?

Example results:
input-smiles: COc1ccc(NC(=O)CSc2nc(Cc3c(Cl)cccc3Cl)cc(=O)[nH]2)cc1OC
category-label: -1
//
input-smiles: COc1ccc(NC(=O)CSc2nc(Cc3c(Cl)cccc3Cl)c(C)c(=O)[nH]2)cc1
category-label: -1
//
input-smiles: O=C(CSc1nc(Cc2c(Cl)cccc2Cl)cc(=O)[nH]1)Nc1ccc(F)c(F)c1
category-label: -1
//
input-smiles: Cc1c(Cc2c(Cl)cccc2Cl)nc(SCC(=O)Nc2ccc(Cl)cc2)[nH]c1=O
category-label: 1

Please look at the following compound next.
Qu. Exam item: decide whether the reported pEC50 for O=C(CSc1nc(Cc2c(Cl)cccc2Cl)cc(=O)[nH]1)Nc1ccc(Cl)c(Cl)c1 is at least 6.
Ans. -1

###

Here the recorded selectivity ratio is given for each entry.
assay: Selectivity index, ratio of CC50 for mock-infected human MT4 cells to EC50 for HIV1 3B infected in human MT4 cells; format: toxicity, cell-based; conditions: read-out: Ratio CC50/EC50

Previously resolved entries follow.
input-smiles: O=C(CSc1nc(Cc2c(Cl)cccc2Cl)cc(=O)[nH]1)Nc1ccc([N+](=O)[O-])cc1
reported: > 130

input-smiles: Cc1c(Cc2c(Cl)cccc2Cl)nc(SCC(=O)Nc2ccc(F)c(Cl)c2)[nH]c1=O
reported: ≥ 1

input-smiles: Cc1c(Cc2c(Cl)cccc2Cl)nc(SCC(=O)Nc2ccc(Cl)cc2)[nH]c1=O
reported: > 836

Qu. Can you share its selectivity ratio? I mean this molecule: COc1ccc(NC(=O)CSc2nc(Cc3c(Cl)cccc3Cl)c(C)c(=O)[nH]2)cc1
Ans. 4

Qu. selectivity ratio lookup needed for Cc1ccc(NC(=O)CSc2nc(Cc3c(Cl)cccc3Cl)cc(=O)[nH]2)cc1 , thanks.
Ans. ≥ 54

Qu. Quick one: selectivity ratio of COc1ccc(NC(=O)CSc2nc(Cc3c(Cl)cccc3Cl)cc(=O)[nH]2)cc1 ?
Ans. 28

Qu. Would you kindly share the measured selectivity ratio for COc1ccc(NC(=O)CSc2nc(Cc3c(Cl)cccc3Cl)cc(=O)[nH]2)cc1OC ?
Ans. 28

Qu. Dear colleague, I am looking for the recorded selectivity ratio of the following molecule: O=C(CSc1nc(Cc2c(Cl)cccc2Cl)cc(=O)[nH]1)Nc1ccc(F)c(F)c1
Ans. ≥ 1

###

Quick list: pEC50 per entry.
system: Human immunodeficiency virus 1; assay: Antiviral activity against HIV1 3B infected in human MT4 cells assessed as inhibition of virus-induced cytopathic effect after 5 days by MTT assay; type: functional, organism-based; settings: Human immunodeficiency virus 1, 3B, MT4, 120 h
Value format note: pEC50 is -log10 of concentration (mol/L); just state the number.

Consider the worked cases shown below.
input-smiles: Cc1ccc(NC(=O)CSc2nc(Cc3c(Cl)cccc3Cl)cc(=O)[nH]2)cc1
subject-of-test: Human immunodeficiency virus 1
pEC50: 6.06
//
input-smiles: O=C(CSc1nc(Cc2c(Cl)cccc2Cl)cc(=O)[nH]1)Nc1ccc(Cl)cc1
subject-of-test: Human immunodeficiency virus 1
pEC50: 6.02
//
input-smiles: COc1ccc(NC(=O)CSc2nc(Cc3c(Cl)cccc3Cl)cc(=O)[nH]2)cc1
subject-of-test: Human immunodeficiency virus 1
pEC50: 6.04
//
input-smiles: O=C(CSc1nc(Cc2c(Cl)cccc2Cl)cc(=O)[nH]1)Nc1ccc(Br)cc1
subject-of-test: Human immunodeficiency virus 1
pEC50: 6.13

Qu. Fill in: pEC50 of Cc1c(Cc2c(Cl)cccc2Cl)nc(SCC(=O)Nc2ccc(F)c(F)c2)[nH]c1=O is ___
Ans. 6.16

Hello, the source for this data is ChEMBL document CHEMBL1152662, in case you need it.
